Measured EC50, listed per entry.
studySystem: Mu-type opioid receptor (Homo sapiens) + Delta-type opioid receptor (Homo sapiens) (UniProt P35372+P41143)
Sequence (P35372 whole entry, looked up): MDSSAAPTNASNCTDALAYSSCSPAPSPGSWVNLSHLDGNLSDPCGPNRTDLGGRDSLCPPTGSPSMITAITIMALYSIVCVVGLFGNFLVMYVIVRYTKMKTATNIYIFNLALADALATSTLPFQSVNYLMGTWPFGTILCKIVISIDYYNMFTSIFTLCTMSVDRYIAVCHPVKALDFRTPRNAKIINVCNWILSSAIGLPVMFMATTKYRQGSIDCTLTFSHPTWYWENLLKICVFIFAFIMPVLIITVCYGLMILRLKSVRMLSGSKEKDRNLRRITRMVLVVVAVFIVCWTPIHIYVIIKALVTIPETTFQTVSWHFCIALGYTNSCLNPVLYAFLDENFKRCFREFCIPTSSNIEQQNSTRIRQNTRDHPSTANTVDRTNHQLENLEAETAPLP
Sequence (P41143 whole entry, looked up): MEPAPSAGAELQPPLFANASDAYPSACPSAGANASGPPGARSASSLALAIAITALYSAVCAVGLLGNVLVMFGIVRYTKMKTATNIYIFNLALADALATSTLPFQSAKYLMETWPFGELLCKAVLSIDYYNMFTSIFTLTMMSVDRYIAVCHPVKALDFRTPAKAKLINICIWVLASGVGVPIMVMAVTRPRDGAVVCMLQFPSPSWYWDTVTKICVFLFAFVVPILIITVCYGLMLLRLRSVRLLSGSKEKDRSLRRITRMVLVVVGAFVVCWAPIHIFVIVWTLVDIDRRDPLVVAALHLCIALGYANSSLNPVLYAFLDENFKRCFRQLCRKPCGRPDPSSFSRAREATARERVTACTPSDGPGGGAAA
method: OPRM1-OPRD1 heterodimer agonist potency – cell-based, luminescence, counter-screen for MC4R biased agonist project, dose response (AID 602264)
conditionParameters: cell-based OPRM1-OPRD1 heterodimerization
Activity calls are given as the source filed them. No rule for the calls is given here.

Sample answers from the record:
compound: CN(C)CCNC(=O)c1cccc(-c2cc(NC=O)c3ncc(-c4cccc(C(F)(F)F)c4)n3c2)c1
EC50: > 92.5 µM (inactive)

compound: CCCCNc1c(-c2cccc(-c3cc(C(C)=O)cs3)c2)nc2ccc(C)cn12
EC50: > 64.6 µM (inactive)

compound: CCN1CCN(CCNC(=O)c2ccc(/C=C3\Sc4ccccc4N(Cc4ccccc4F)C3=O)cc2)CC1
EC50: > 92.5 µM (inactive)

[Q] State the recorded EC50 for this entry: `COc1cccc(-c2cnc3c(NC=O)cc(-c4ccoc4)cn23)c1`
[A] > 64.6 µM (inactive)

[Q] Consider next the compound `CC(/C=C/C=C/c1ccccc1)=N/NC(=O)CNc1ccccc1C` in the same way.
[A] > 64.6 µM (inactive)

[Q] Consider next the compound `CCC(C)(C)c1ccc(OCCCC[n+]2cccc(C)c2C)c(C(C)(C)CC)c1` in the same way.
[A] > 64.6 µM (inactive)

[Q] Consider next the compound `COc1ccc(-n2nc(C(=O)NCC(=O)Nc3ccccn3)c3ccccc3c2=O)cc1Cl` in the same way.
[A] > 64.6 µM (inactive)

[Q] Consider next the compound NC(Cc1ccc(C(F)(F)F)cc1)c1csc(Nc2nccc(C(F)(F)F)n2)n1 (centres undefined) in the same way.
[A] > 92.4 µM (inactive)
